Reported Ki values, 5-HT2A receptor (Homo sapiens, UniProt P28223).
Write the figure, then the unit, nothing else.

CN(C)CCc1c[nH]c2cccc(OC(=O)OCc3ccccc3)c12 :: 277 nM

The value of Ki measured for the compound CN(C)CCc1c[nH]c2cccc(OC(=O)SCc3ccccc3)c12 turned out to be 130 nM

====

System: GABAA
Format: cell-based
condition: blocker (BL)
endpoint: IC50 (µM)
Numbers only, in µM.

The value of IC50 measured for the compound CN(C)CCc1c[nH]c2cccc(OC(=O)SCc3ccccc3)c12 [E(VI)] turned out to be 32.2

====

procedure details: in vitro
Format: in vitro ADME, human
condition: human, s9, pH 7.4
endpoint: half-life
Write the figure, then the unit, nothing else.

The value of half-life measured for the molecule CN(C)CCc1c[nH]c2cccc(OC(=O)OCc3ccccc3)c12 turned out to be 8.95 h

====

procedure details: in vitro
Assay type: in vitro ADME, human
condition: human, microsomes, pH 7.4
endpoint: half-life (h)
One number for each entry, in h.

The value of half-life measured for the compound CN(C)CCc1c[nH]c2cccc(OC(=O)OCc3ccccc3)c12 turned out to be 3.63

====

system name: 5-HT1A receptor (Homo sapiens, UniProt P08908)
Construct: host or cells: CHO-K1 co-expressing Ga15
Sequence (P08908 whole entry): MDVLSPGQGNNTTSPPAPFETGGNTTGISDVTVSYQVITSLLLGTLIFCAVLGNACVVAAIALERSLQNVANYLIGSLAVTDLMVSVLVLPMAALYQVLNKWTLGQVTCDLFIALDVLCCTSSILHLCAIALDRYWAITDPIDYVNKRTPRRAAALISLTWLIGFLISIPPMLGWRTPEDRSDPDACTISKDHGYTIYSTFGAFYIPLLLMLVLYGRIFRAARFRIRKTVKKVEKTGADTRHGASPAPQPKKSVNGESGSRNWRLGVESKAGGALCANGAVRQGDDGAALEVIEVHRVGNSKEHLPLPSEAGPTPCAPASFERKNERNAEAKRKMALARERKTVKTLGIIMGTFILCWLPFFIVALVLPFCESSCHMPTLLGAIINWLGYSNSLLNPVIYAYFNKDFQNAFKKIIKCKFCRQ
procedure details: cAMP-Glo assay of 5-HT1A receptor modulation in +5-HT1A and -5-HT1A CHO-K1 cells
Type: cell-based
condition: forskolin-stimulated +5-HT1A vs -5-HT1A cells
endpoint: cAMP levels / 5-HT1A receptor modulation

CN(C)CCc1c[nH]c2cccc(O)c12 :: reduction in cAMP levels
NCCc1c[nH]c2ccc(O)cc12 :: reduction in cAMP levels
